target: C. neoformans Hsp90 NBD (Cryptococcus neoformans, UniProt J9VVA4); test: FP assay with purified C. neoformans Hsp90 NBD (Ki); format: binding; conditions: C. neo FS calculated using Ki
Sequence (J9VVA4 1-699): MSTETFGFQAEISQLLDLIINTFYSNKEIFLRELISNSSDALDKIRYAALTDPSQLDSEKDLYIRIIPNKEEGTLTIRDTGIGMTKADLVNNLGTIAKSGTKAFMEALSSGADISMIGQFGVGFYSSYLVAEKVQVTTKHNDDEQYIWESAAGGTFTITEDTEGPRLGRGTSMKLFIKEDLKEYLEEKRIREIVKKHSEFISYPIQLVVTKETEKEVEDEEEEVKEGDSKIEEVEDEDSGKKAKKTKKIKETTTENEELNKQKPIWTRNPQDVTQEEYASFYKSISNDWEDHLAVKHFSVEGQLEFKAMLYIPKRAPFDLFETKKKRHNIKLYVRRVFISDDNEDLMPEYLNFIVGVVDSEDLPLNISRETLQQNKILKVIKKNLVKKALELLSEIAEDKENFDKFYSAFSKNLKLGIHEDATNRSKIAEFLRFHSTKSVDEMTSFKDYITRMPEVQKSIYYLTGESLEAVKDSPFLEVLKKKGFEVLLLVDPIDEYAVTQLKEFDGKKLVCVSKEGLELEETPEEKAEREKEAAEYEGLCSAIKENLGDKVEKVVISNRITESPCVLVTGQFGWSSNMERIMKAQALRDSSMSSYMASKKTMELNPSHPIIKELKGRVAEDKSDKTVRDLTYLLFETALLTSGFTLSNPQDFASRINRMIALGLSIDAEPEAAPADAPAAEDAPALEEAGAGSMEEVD
Overview of reported C. neo Selectivity (FS) across a group of compounds:
Kindly provide the number alone.

Reference set, count: 4
compound=COc1ccccc1-c1cc(Nc2cc(O)cc(O)c2C(=O)N2CC[C@@H](OC)C2)n(C)n1 recorded_metric="C. neo Selectivity (FS)" measured=259.7
compound="COc1ccccc1-c1cc(Nc2cc(O)cc(O)c2C(=O)N2CC[C@H](NC(C)=O)C2)n(C)n1 [ACSM01349]" recorded_metric="C. neo Selectivity (FS)" measured=159.7
compound=Cn1nc(-c2ccccc2)cc1Nc1cc(O)cc(O)c1C(=O)N1Cc2ccncc2C1 recorded_metric="C. neo Selectivity (FS)" measured=57.3
compound=COc1ccccc1-c1cc(Nc2cc(O)cc(O)c2C(=O)N2CC[C@H](OC)C2)n(C)n1 recorded_metric="C. neo Selectivity (FS)" measured=98

Shifting focus to the compound that follows.
Looking up COc1ccccc1-c1cc(Nc2cc(O)cc(O)c2C(=O)N2CC[C@H](NC(C)=O)C2)n(C)n1 [ACSM01348] , I see its C. neo Selectivity (FS) listed as 107.7

====

Measured EC50 accompanies every entry in the list below.
target: Hsp90 (C. albicans whole cell lysate) (Candida albicans (strain SC5314 / ATCC MYA-2876) (Yeast), UniProt P46598); test: biochemical; type: binding; conditions: read-out: C. alb EC50

Use the examples below as a reference point.
molecule="Cn1nccc1Nc1cc(O)cc(O)c1C(=O)N1CC2CC2C1 (stereo not shown)" measured="> 10 µM"
molecule=COc1cccc(-c2cc(Nc3cc(O)cc(O)c3C(=O)N3Cc4ccc(N5CCN(C)CC5)cc4C3)n(C)n2)c1 measured="> 10 µM"
molecule=Cc1cccc(-c2cc(Nc3cc(O)cc(O)c3C(=O)N3Cc4ccc(N5CCOCC5)cc4C3)n(C)n2)c1 measured="> 10 µM"

Lab note: next molecule to report on.
# EC50 (molecule: COc1ccc(Cn2nc(C)cc2Nc2cc(O)cc(O)c2C(=O)N(C)CC2CC2)cc1 ) is > 9 µM

====

Recorded half-life values for a group of molecules are listed next.
assay: in vitro; details: both, CD-1, mouse, microsomes
The reply should be a number in min, with the unit left off.

Use the examples below as a reference point.
sample_smiles=Cc1cccc(-c2cc(Nc3cc(O)cc(O)c3C(=O)N3Cc4cn[nH]c4C3)n(C)n2)c1 recorded_metric=half-life measured=9.4
sample_smiles=Cn1nc(-c2ccc(C(C)(C)C)cc2)cc1Nc1cc(O)cc(O)c1C(=O)N1Cc2cn[nH]c2C1 recorded_metric=half-life measured=6.4

So for COc1cccc(-c2cc(Nc3cc(O)cc(O)c3C(=O)N3Cc4ccccc4C3)n(C)n2)c1 , the logged half-life turned out to be 3.2
